test: Serum lipid-adjusted dioxin congener concentrations in former chlorophenol workers, repeated blood sampling 2004–2005 and 2010; type: in vivo, human; settings: change in concentration from 2004–2005 to 2010
observable: Mean percent change

Here are 5 compounds together with their reported answers.
record_smiles=Clc1cc2c(c(Cl)c1Cl)Oc1cc(Cl)c(Cl)c(Cl)c1O2 result=–31%
record_smiles=Clc1cc2c(cc1Cl)Oc1cc(Cl)c(Cl)cc1O2 result=–39%
record_smiles=Clc1cccc2c1Oc1c(Cl)c(Cl)c(Cl)c(Cl)c1O2 result=–28%
record_smiles=Clc1cc2c(cc1Cl)Oc1c(Cl)c(Cl)c(Cl)c(Cl)c1O2 result=–34%
record_smiles=Clc1cc2c(c(Cl)c1Cl)Oc1c(cc(Cl)c(Cl)c1Cl)O2 result=–42%

Mean percent change for "Clc1cc2c(c(Cl)c1Cl)Oc1c(Cl)c(Cl)c(Cl)c(Cl)c1O2" is –46%

Sample "Clc1c(Cl)c(Cl)c2c(c1Cl)Oc1c(Cl)c(Cl)c(Cl)c(Cl)c1O2" ; Mean percent change observed: –41%
